B1: Tudor domain-containing protein 3, residues 554 to 611; numbered along this chain, Q9H7E2 (parent)
chain: KMWKPGDECFALYWEDNKFYRAEVEALHSSGMTAVVKFIDYGNYEEVLLSNIKPIQTE

Variants of: B1
measurement-description: abundance fitness (aPCA) (normalised: wild type 0, dead -1); higher = more abundant; growth selection in yeast, the domain comes from the species named
conditions: Homo sapiens
observation-type: abundance fitness
Please state the value as a number alone, without comment.

{"columns": ["change", "observed-value"],
 "data": [
  ["K37L", -0.719],
  ["G42W", -0.695],
  ["D7C", -0.573],
  ["S30F", -0.435],
  ["S29L", -0.125]
]}

# evaluate next
Measured abundance fitness of C9W : -0.773
